Test: Selectivity index, ratio of CC50 for cytotoxicity against human HEK293 cells to EC50 for inhibition of actin polymerisation in trophozoite-stage of plasmodium falciparum
Format: toxicity, cell-based
Conditions: read-out: Ratio CC50/EC50
Measurement Type: selectivity ratio
Please reply with the value in numeric form only.

Please look up its selectivity ratio: CCCCC(=O)OC1CCOC(OC)([C@@H]2CSC(=O)N2Cc2ccc(OC)cc2)C1 (mixture of isomers)
1

Check COc1ccc(CN2C(=O)SC[C@H]2C2(OC)CC(OC(=O)c3ccccc3-c3cccc4ccccc34)CCO2)cc1 (mixture of isomers) too.
17

Try this compound next: COc1ccc(CN2C(=O)SC[C@H]2C2(OC)CC(OC(=O)c3ccccc3C3=CCCCC3)CCO2)cc1 (mixture of isomers)
14

These measurements were taken from ChEMBL document CHEMBL4673206.
